Exercise: state measured SY5Y (human) NAD Cell Dox AC0.3 for each of the molecules provided.
# Tgt: endogenous NAMPT (Homo sapiens (Human), UniProt P43490)
# Sequence (P43490 whole entry): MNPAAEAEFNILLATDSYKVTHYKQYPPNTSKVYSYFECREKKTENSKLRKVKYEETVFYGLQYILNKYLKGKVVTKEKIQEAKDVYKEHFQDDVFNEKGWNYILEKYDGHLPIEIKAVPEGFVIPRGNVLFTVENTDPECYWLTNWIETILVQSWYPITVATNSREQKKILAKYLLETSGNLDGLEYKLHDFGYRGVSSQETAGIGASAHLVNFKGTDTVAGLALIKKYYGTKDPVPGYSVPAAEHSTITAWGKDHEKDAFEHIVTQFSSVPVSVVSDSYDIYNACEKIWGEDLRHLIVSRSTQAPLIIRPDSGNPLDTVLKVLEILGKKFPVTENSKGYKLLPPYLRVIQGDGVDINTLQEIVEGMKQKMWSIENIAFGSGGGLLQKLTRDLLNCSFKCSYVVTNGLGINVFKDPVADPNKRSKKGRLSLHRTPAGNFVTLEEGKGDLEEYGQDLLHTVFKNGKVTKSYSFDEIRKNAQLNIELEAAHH
# Test Details: Cellular NAD+ modulation assay in SH-SY5Y cells with doxorubicin
# Type: cell-based
# Run Parameters: Neuroblastoma SH-SY5Y cells, 40 hours, cellular NAD levels

Study these solved cases before continuing.
[[record]]
sample_smiles = "Cc1nc(C(=O)N[C@H](C)c2cccc(F)n2)nc(NCCc2cn[nH]c2)c1F"
result = "0.01 µM"

[[record]]
sample_smiles = "Cc1nc(C(=O)N2CCC[C@@H]2c2cccc(F)c2)nc(NCCc2cn[nH]c2)c1C"
result = "0.26 µM"

[[record]]
sample_smiles = "Cc1nc(C(=O)N[C@@H](C)c2cccc(F)c2)nc(NCCc2cn[nH]c2)c1C"
result = "0.2 µM"

[[record]]
sample_smiles = "Cc1nc(C(=O)NCC(C)(C)c2cccc(F)c2)nc(NCCc2cn[nH]c2)c1C"
result = "0.28 µM"

[[record]]
sample_smiles = "Cc1nc(C(=O)N[C@H](C)c2cccs2)nc(NCCc2cn[nH]c2)c1C"
result = "0.28 µM"


State recorded SY5Y (human) NAD Cell Dox AC0.3 for all listed molecules.
1. Cc1nc(C(=O)N2CCOC[C@H]2c2ccccc2)nc(NCCc2cn[nH]c2)c1C
2. Cc1nc(C(=O)N[C@H](C)c2ccccc2Cl)nc(NCCc2cn[nH]c2)c1C
3. C[C@@H](NC(=O)c1cc(Br)cc(NCCc2cn[nH]c2)n1)c1cccc(F)n1

A:
["0.41 µM", "0.26 µM", "0.17 µM"]

###

# Tgt: UniProtKB P43490
# Test Details: Human recombinant enzyme assay (NMN fluorescence biochemical assay)
# Run Parameters: concentration that gives half-maximal activation; 6 nM human NAMPT, 60 min
pEC50: −log10 of the molar value.
Lab note: anything with pEC50 at or over 6 counts as Criterion met; the rest go in Criterion not met.

Here are 6 molecules together with their reported answers.
[[record]]
molecule = "Cc1nc(C(=O)N2CCC[C@@H]2c2cccc(F)c2)nc(NCCc2cn[nH]c2)c1C [Compound 15]"
assigned_class = "Criterion met"

[[record]]
molecule = "COC1(c2ccccc2)CN(C(=O)c2nc(C)c(C)c(NCCc3cn[nH]c3)n2)C1 [Compound 102]"
assigned_class = "Criterion not met"

[[record]]
molecule = "Cc1nc(C(=O)NCc2ncccc2F)nc(NCCc2cn[nH]c2)c1C [Compound 120]"
assigned_class = "Criterion not met"

[[record]]
molecule = "Cc1nc(C(=O)NCC(O)C(F)(F)F)nc(NCCc2cn[nH]c2)c1C (centres unmarked) [Compound 128]"
assigned_class = "Criterion not met"

[[record]]
molecule = "Cc1nc(C(=O)NC2CC(F)(F)c3ccccc32)nc(NCCc2cn[nH]c2)c1C (centres unmarked) [Compound 79]"
assigned_class = "Criterion not met"

[[record]]
molecule = "Cc1nc(C(=O)N2CC(c3cccc(F)c3)C2)nc(NCCc2cn[nH]c2)c1C [Compound 18]"
assigned_class = "Criterion met"


In the following, a different molecule is considered.
Q: Reported pEC50 at or above 6? Cc1nc(C(=O)NC(c2cccnc2)C(F)(F)F)nc(NCCc2cn[nH]c2)c1C (centres unmarked) [Compound 136]
A: Criterion not met
